EXPERIMENT_DESCRIPTION: gradient 5% acetonitrile 3 min, to 50% in 2 min, to 85% in 15 min, held 3 min, 100 µL/min
CONDITION_DESCRIPTION: column: Zorbax Extend-C18 2.1 x 50 mm; eluents: water / acetonitrile, 0.1% formic acid
PROPERTY_MEASURED: RP-LC retention time (s)

// below: answered molecules
1. Cc1nn(-c2ccccc2)c(C)c1S(=O)(=O)N1CCC(C(=O)NC2CCCCCC2)CC1 | 965
2. O=S(=O)(c1cccc2nsnc12)N1CCCC1c1noc(CO)n1 (centres undefined) | 682
3. O=C(NCCc1nc2cccnc2n1-c1ccccc1)c1ccccc1 | 708
4. COc1ccc(-c2nc3cccnc3n2C2CCN(C(=O)NC3CCCC3)C2)cc1 (centres undefined) | 879
5. CCOc1cc(=O)n2c(c1C(=O)NCCCN1CCCCC1)CCCCC2 | 568

A: Cc1ccc(C)c(N2CCN(c3ccnc(SCC(=O)NCCC(C)C)n3)CC2)c1
B: O=C(c1cccc(Cl)c1)N1CCN(c2cc(-c3cccnc3)[nH]n2)CC1
Query block: Between item A and item B , which reported RP-LC retention time is smaller? // return label of chosen record
Result block: B

I: Cc1nc(C)c(C(=O)Nc2ccc(F)cc2Cl)s1
II: COc1ccc(NS(=O)(=O)c2cc(-c3nc(C(C)(C)C)cs3)cs2)cc1Cl
Query block: I would appreciate it if you could say which entry, I or II , has the lower RP-LC retention time value. // caller expects the label of the chosen entry
Result block: I

1: C=CCN1CCc2c(cc(O)c(O)c2Br)[C@@H](c2ccccc2)C1
2: CN(C)S(=O)(=O)c1ccc(-c2nnc(C(=O)N3CCC(Cc4ccccc4)CC3)o2)cc1
Query block: Between 1 and 2 , which one has the lower reported RP-LC retention time value? Record your answer as the label of the chosen record.
Result block: 1
(1: 670 s, 2: 1080 s)

A: CCc1nn(C)c(=O)c2cc(S(=O)(=O)NCc3ccccc3)cn12
B: OCc1nc2ccccc2n1C/C=C/c1ccccc1
Query block: For the two items A and B , which reports the higher RP-LC retention time value? Answer by quoting the chosen item's label.
Result block: A

----------
EXPERIMENT_DESCRIPTION: gradient 5% acetonitrile 3 min, to 50% in 2 min, to 85% in 15 min, held 3 min, 100 µL/min
CONDITION_DESCRIPTION: column: Zorbax Extend-C18 2.1 x 50 mm; eluents: water / acetonitrile, 0.1% formic acid
PROPERTY_MEASURED: RP-LC retention time (s)

1) O=C(Nc1ccc(C2=NCCN2)cc1)c1ccc(Cl)c(C(=O)Nc2ccc(C3=NCCN3)cc2)c1 | 618
2) Cc1cc(Cl)ccc1NC(=O)c1cc(C(C)C)on1 | 1090
3) CC1=CC(C)(C)N=C2SC(c3ccc(N)cc3)=NN12 | 635

1: COc1ccc(Cl)cc1NC(=O)CSc1cc(N2CCN(c3ccccc3OC)CC2)ncn1
2: Cc1noc(C2(NC(=O)c3ccc(C(F)(F)F)cc3)CCCCC2)n1
Query block: Which has the higher RP-LC retention time, 1 or 2 ? Kindly give the label for the entry you pick.
Result block: 1

----------
EXPERIMENT_DESCRIPTION: gradient 5% acetonitrile 3 min, to 50% in 2 min, to 85% in 15 min, held 3 min, 100 µL/min
CONDITION_DESCRIPTION: column: Zorbax Extend-C18 2.1 x 50 mm; eluents: water / acetonitrile, 0.1% formic acid
PROPERTY_MEASURED: RP-LC retention time (s)

1) COc1ccccc1Cc1nc(C2CC(=O)N(c3ccc(F)c(Cl)c3)C2)no1 (centres undefined) | 1020
2) Cc1cc(N2CCOCC2)n2nc(CN3CCN(c4ccccc4)CC3)nc2n1 | 588
3) Cc1ccc(-c2csc(NC(=O)CSc3nc4c(cc3C#N)CN(C(C)C)CC4)n2)cc1 | 741
4) O=C(NCC1CN(CC2CC2)CC12CCCCC2)Nc1cccc(Cl)c1 (centres undefined) | 741
5) CCCCN1C(=O)CN(S(=O)(=O)c2ccccc2)CC1(C)C(=O)NCc1ccc(C)cc1 (centres undefined) | 805
6) CC(=O)Nc1cc2c(cc1Sc1ccccc1Cl)n(C)c(=O)n2C | 781
7) O=C(Cc1nc(-c2cccnc2)n[nH]1)NCCc1ccccc1 | 588
8) CC1CCCC(NC(=O)CCn2cnc3onc(-c4ccc(F)cc4)c3c2=O)C1C (centres undefined) | 1050
9) CCN1C(=O)c2cccnc2Sc2cc(NC(=O)Cc3ccccc3F)ccc21 | 826

----------
EXPERIMENT_DESCRIPTION: gradient 5% acetonitrile 3 min, to 50% in 2 min, to 85% in 15 min, held 3 min, 100 µL/min
CONDITION_DESCRIPTION: column: Zorbax Extend-C18 2.1 x 50 mm; eluents: water / acetonitrile, 0.1% formic acid
PROPERTY_MEASURED: RP-LC retention time (s)

1. Cc1ccc(NS(=O)(=O)c2ccc([N+](=O)[O-])cc2)c(-c2nc3ccccc3[nH]c2=O)c1 | 858
2. COc1ccc(-c2nnc(-c3ccc(C)c(S(=O)(=O)N4CCSCC4)c3)o2)cc1OC | 970
3. COc1ccc(-n2c(=O)n(C)c(=O)c3cc(C(=O)NC(C)c4ccc(F)cc4)cnc32)cc1 (stereo not drawn) | 888

I: Fc1ccc(-c2noc(Cc3nnc(-c4cccc(Cl)c4)o3)n2)cc1
II: CCOC(=O)c1nc(N2CCN(Cc3ccc4c(c3)OCO4)CC2)c2ccccc2n1
Query block: # min-compare on RP-LC retention time between I and II # reply format: chosen label
Result block: II
(II: 739 s, I: 1070 s)

A: Cc1ccc(C2Cn3nnc(C(=O)N4CCN(C(=O)c5ccoc5)CC4)c3CO2)cc1 (stereo not drawn)
B: O=C(Cc1cccnc1)N1CCC(c2nc(-c3ccncc3)no2)C1 (stereo not drawn)
Query block: Which value of RP-LC retention time is greater, the one for A or the one for B ? # reply format: chosen label
Result block: A
(A: 815 s, B: 548 s)

a: Cc1cccc(N2CCN(C(=O)c3cc(C)n4nccc4n3)CC2)c1
b: CC(C)N1C(=O)C(C)N(C(=O)NCCN(C)C)c2cccnc21 (stereo not drawn)
Query block: Thinking about recorded RP-LC retention time values, which is higher, a or b ? Choose, then provide that item's label.
Result block: a
(a: 829 s, b: 565 s)

----------
EXPERIMENT_DESCRIPTION: gradient 5% acetonitrile 3 min, to 50% in 2 min, to 85% in 15 min, held 3 min, 100 µL/min
CONDITION_DESCRIPTION: column: Zorbax Extend-C18 2.1 x 50 mm; eluents: water / acetonitrile, 0.1% formic acid
PROPERTY_MEASURED: RP-LC retention time (s)

1) CCOC(=O)c1noc2nc(C)nc(NCCCN3CCN(c4ccccc4)CC3)c12 | 668
2) O=C(NCc1ccc(F)cc1)N1CCCC1c1nc(-c2cccc(F)c2)no1 (stereo not drawn) | 946
3) COc1ccc(OC)c(NC(=O)c2cc(S(=O)(=O)N3CCCC(C)C3)cn2C)c1 (stereo not drawn) | 638

P: O=C(Cn1c2c(c(=O)n(C3CCCCC3)c1=O)CCC2)NCc1ccco1
Q: CCOC(=O)C1CCN(c2ncccc2-c2nnc(-c3ccc(C)cc3)o2)CC1
Query block: Could you tell me which of P and Q has the lower RP-LC retention time reading? Your choice should be expressed through its label.
Result block: P

----------
EXPERIMENT_DESCRIPTION: gradient 5% acetonitrile 3 min, to 50% in 2 min, to 85% in 15 min, held 3 min, 100 µL/min
CONDITION_DESCRIPTION: column: Zorbax Extend-C18 2.1 x 50 mm; eluents: water / acetonitrile, 0.1% formic acid
PROPERTY_MEASURED: RP-LC retention time (s)

1. COc1ccc(Br)c2c1-c1nc(NC(=O)c3cccc(F)c3)sc1C2 | 1210
2. Cc1ccc(Sc2ccc(N3CCC(C(=O)N4CCN(c5ncccn5)CC4)CC3)nn2)cc1 | 741
3. COc1ccc(S(=O)(=O)N2CCCC(C(N)=O)C2)cc1OC (centres undefined) | 640
4. O=C(NCCC1CCN(C(=O)Nc2cc(F)ccc2F)CC1)c1ccoc1 | 758

1: Cc1nc(-c2csc(S(=O)(=O)N3CCN(c4cccc(Cl)c4)CC3)c2)sc1C
2: CCCNC(=O)c1c2c(nc3ccc(C)cc13)CCC2
Query block: Select one. Lower RP-LC retention time: 1 or 2 # answer = label of selected item
Result block: 2
(2: 625 s, 1: 1270 s)

----------
EXPERIMENT_DESCRIPTION: gradient 5% acetonitrile 3 min, to 50% in 2 min, to 85% in 15 min, held 3 min, 100 µL/min
CONDITION_DESCRIPTION: column: Zorbax Extend-C18 2.1 x 50 mm; eluents: water / acetonitrile, 0.1% formic acid
PROPERTY_MEASURED: RP-LC retention time (s)

1) CCCNC(=O)Nc1ccc(NC(=O)N2CCCC(C(=O)NCC3CCCCC3)C2)cc1 (stereo not drawn) | 776

I: Cc1ccnc(NS(=O)(=O)c2ccc(NC(=O)c3cn(C)nc3C)cc2)n1
II: COc1ccc(S(=O)(=O)N2C[C@@H](F)C[C@H]2C(=O)N2CCc3ccccc3C2)cc1
III: CCn1c(C(=O)NCCCc2ccccc2)cc2c(-c3cccs3)nn(-c3ccccc3)c21
Query block: Endpoint returns the given molecules ordered by ascending RP-LC retention time. List the labels according to the requested ordering.
Result block: I, II, III
(I: 589 s, II: 877 s, III: 1280 s)

I: O=C(CCc1c(-c2ccc(Br)cc2)nc2ccccn12)NC1CC1
II: c1cc(-c2noc(-c3cccc4[nH]ccc34)n2)cc(-c2ccn[nH]2)c1
Query block: Among I and II , whose measured RP-LC retention time is the smaller figure? # answer = label of selected item
Result block: I

A: O=C(c1ccn[nH]1)N1CCCC(Cn2c(C3CC3)nc3cccnc32)C1 (stereo not drawn)
B: COC(=O)c1ccc(NC(=O)Cn2c(C)nc3c(sc4nc(-c5ccccc5)ccc43)c2=O)cc1
Query block: Between A and B , which one shows the smaller RP-LC retention time number? Which one? Tell me its label.
Result block: A
(A: 578 s, B: 1020 s)
